# MEASURED_ON: T1, RSV postfusion F (postF), subtype A (respiratory syncytial virus, subtype A, UniProt P03420 26-513)
# T1 construct: also called F ΔFP; Postfusion subtype A
# TEST_METHOD_NOTES: BLI, IgG
RECORDED_ENDPOINT: binding result

[[record]]
binder = "ADI-21029 (antibody, V domains shown) VH: QVQLVQSGAEVRKPGESLKISCKASGYSFTNYWIGWVRQMPGKGLEWMGIVYPADSHPVYSPSFQGQVTFSTDKSINTAYLQWSSLKASDTAMYFCARRDGGTDYLSDAFDIWGQGTMVTVSS VL: DIVMTQSPSSLSASVGDRVTITCRTSQSIRRYLNWYQQKPGKAPKLLIYAASSLQSGVPSRFSGSGSGTDFTLTISSLQPEDFATYYCQQSYSTPNTFGQGTKVEIK"
result = "no binding"

[[record]]
binder = "ADI-14576 (antibody, V domains shown) VH: QVQLVQSGAEVKKPGASVKVSCKASGYTFTSYGISWVRQAPGQGLEWMGWISAYNGNTNYAQKLQGRVTMTTDTSTSTAYMELRSLRSDDTAVYYCARDPPVIAAGDFQHWGQGTLVTVSS VL: DIVLTQSPLSLPVTLGQPASISCRSSQSLVHSDGNTYLNWFQQRPGQSPRRLIYKVSNRDSGVPDRFSGSGSGTDFTLKISRVEAEDVGVYYCMQGTHWPPDFGQGTRLEIK"
result = "no binding"

[[record]]
binder = "ADI-21021 (antibody, V domains shown, also called Ab 270) VH: QVQLQQWGAGLLKPSETLSLTCAVHGGSFSGFYWSWIRQSPGKGLEWIAEINDSGNTNHNPSLKSRVTISIDTSKNQFSLNVSSVTAADTAVYYCAKNGGGHHYVGTLRFRSRAFDIWGQGTMVTVSS VL: EIVMTQSPSTLSASVGDRVTITCRASQSIGNRLAWYQQKPGKAPKLLISLASGLETGVPSRFSGSGSGTEFTLTITSLQPDDFATYYCQQYSSYGTFGQGTKLEIK"
result = "no binding"

